# System: P388 leukemia ip, CD2F1 mice, survival T/C
# Protocol Summary: NCI In Vivo Anticancer Drug Screen. Data for tumor model P388 Leukemia (intraperitoneal) in CD2F1 (CDF1) mice
# Cond: endpoint: median survival time; dose: 100.0 mg/kg/injection; schedule: Q01DX009 (ip); vehicle: saline with Tween-80; higher = longer survival
# Method: The antitumor activity of compounds was measured in mice bearing transplantable tumors. Survival or tumor size were measured and the results are expressed as the measurement made in the treated group (T) divided by the measurement made in the vehicle treated control group (C). The tumor model used in this assay is P388 Leukemia (intraperitoneal) in CD2F1 (CDF1) mice
Toxic doses and inconclusive results are not listed.
Reported Endpoint: T/C

CCCOC(=O)c1ccccc1C(=O)O	104 % of control
CC(C)=CCc1c2c(c(O)c3c(=O)c(-c4ccc(O)c(O)c4)coc13)C=CC(C)(C)O2	99 % of control
C=C(Cl)CSc1ncnc2nc[nH]c12	109 % of control

# input for lookup
Prompt line: Using the record for `COc1nc2ccccc2nc1OC` , report its T/C.
Response line: 97 % of control

---

# Tested on: P388 leukemia ip, CD2F1 mice, survival T/C
# Protocol Summary: NCI In Vivo Anticancer Drug Screen. Data for tumor model P388 Leukemia (intraperitoneal) in CD2F1 (CDF1) mice
# Cond: endpoint: median survival time; dose: 6.25 mg/kg/injection; schedule: Q01DX009 (ip); vehicle: saline with Tween-80; higher = longer survival
Toxic doses and inconclusive results are not listed.
Reported Endpoint: T/C

Before answering, review these 3 worked examples.
COc1ccc(N=NNc2ccc(OC)cc2)cc1	104 % of control
Cc1nn(-c2ccc(S(=O)(=O)[O-])cc2)c([O-])c1N=[N+](C)c1ccc(-c2ccc(N=Nc3ccc4c(S(=O)(=O)[O-])cc(S(=O)(=O)[O-])c(N)c4c3[O-])c([O-])c2)cc1[O-].[Cu+2].[Cu+2].[Na+]	96 % of control
Cc1cc2ccccc2c[n+]1C	96 % of control

Prompt line: Using the record for `O=c1c2ncccc2cc2n1CCc1c-2[nH]c2ccccc12` , report its T/C.
Response line: 88 % of control

Prompt line: Using the record for `COc1cc(N)ccc1NC(=O)c1ccccc1` , report its T/C.
Response line: 109 % of control

Prompt line: Using the record for `Cc1ccc(S(=O)(=O)C(=S)Sc2ccccc2)cc1` , report its T/C.
Response line: 105 % of control

Prompt line: Using the record for `CN(C)c1nc(NC(=O)NC(=O)c2c(F)cccc2F)nc(N(C)C)n1` , report its T/C.
Response line: 101 % of control

Prompt line: Using the record for `COc1ccc(C2CC(=O)N(CN3CCN(c4ccc(Cl)cc4)CC3)C(=O)C2)cc1` , report its T/C.
Response line: 94 % of control

---

# System: P388 leukemia ip, CD2F1 mice, survival T/C
# Protocol Summary: NCI In Vivo Anticancer Drug Screen. Data for tumor model P388 Leukemia (intraperitoneal) in CD2F1 (CDF1) mice
# Cond: endpoint: median survival time; dose: 200.0 mg/kg/injection; schedule: Q01DX005 (ip); vehicle: Klucel (hydroxypropylcellulose) (HPC); higher = longer survival
Toxic doses and inconclusive results are not listed.
Reported Endpoint: T/C

Before answering, review these 3 worked examples.
CC(C)(C)c1cc2c(O)c(c1)Cc1cc(C(C)(C)C)cc(c1O)Cc1cc(C(C)(C)C)cc(c1O)Cc1cc(C(C)(C)C)cc(c1O)C2	96 % of control
CCOC(=O)CCC1=C(C)c2cc3[nH]c(cc4[nH]c(cc5nc(cc1n2)C(CCC(=O)OCC)=C5C)c(C1CC1C(=O)OCC)c4C)c(C1CC1C(=O)OCC)c3C (stereo unspecified)	101 % of control
COc1ccc2c(c1OC)/C(=C/c1ccccc1)OC2C1c2c(cc3c(c2OC)OCO3)CCN1C (stereo unspecified)	96 % of control

Prompt line: Using the record for `C=CC(C)(C)C1=CC(=O)C(OC)=CC1=O` , report its T/C.
Response line: 100 % of control

---

# System: P388 leukemia ip, CD2F1 mice, survival T/C
# Protocol Summary: NCI In Vivo Anticancer Drug Screen. Data for tumor model P388 Leukemia (intraperitoneal) in CD2F1 (CDF1) mice
# Cond: endpoint: median survival time; dose: 100.0 mg/kg/injection; schedule: Q01DX005 (ip); vehicle: Klucel (hydroxypropylcellulose) (HPC); higher = longer survival
Toxic doses and inconclusive results are not listed. Peptide text beside a SMILES is read from it.
Reported Endpoint: T/C

Before answering, review these 3 worked examples.
C=C(C)C1Cc2cc(C(C)=O)c(O)c(OC)c2O1 (centres undefined)	97 % of control
COC(=O)C(Cc1ccc(O)cc1)NC(=O)C(Cc1ccccc1)NC(C)=O (stereo not drawn) (Ac-Phe-Tyr-OMe; configuration not given here)	97 % of control
C#CC1CCC(NC(=O)NCCCCCCNC(=O)NC2CCC(C#C)CC2)CC1 (centres undefined)	94 % of control

Prompt line: Using the record for Cn1c(C(=O)N/N=C/C23OC(C)(C)OC2OCC2OC(C)(C)OC23)cc2cc(OCc3ccccc3)ccc21 (centres undefined) , report its T/C.
Response line: 101 % of control

Prompt line: Using the record for `C=CC(C)(C)C1=CC(=O)C(OC)=CC1=O` , report its T/C.
Response line: 103 % of control

Prompt line: Using the record for `Cc1ccc(C)c2c(C#Cc3ccccc3)c3ccccc3c(C#Cc3ccccc3)c12` , report its T/C.
Response line: 90 % of control

Prompt line: Using the record for `CC(C)(C)c1cc2c(O)c(c1)Cc1cc(C(C)(C)C)cc(c1O)Cc1cc(C(C)(C)C)cc(c1O)Cc1cc(C(C)(C)C)cc(c1O)C2` , report its T/C.
Response line: 102 % of control

Prompt line: Using the record for `O=C(O)CCCCCSCCCCCCSCCCCCC(=O)O` , report its T/C.
Response line: 105 % of control

Prompt line: Using the record for OCc1cccc2c1C(O)c1ccccc1-2 (centres undefined) , report its T/C.
Response line: 104 % of control

Prompt line: Using the record for CCOC(=O)C(C#N)C(c1ccc2c(c1)OCO2)N(CCO)CCO (centres undefined) , report its T/C.
Response line: 99 % of control

Prompt line: Using the record for `CN(C)n1c(O)c(N=O)sc1=S` , report its T/C.
Response line: 95 % of control

Prompt line: Using the record for O=C(/C=C/c1ccccc1)OCC1=C[C@@H](O)[C@@H]2C=CO[C@@H](OC3OC(CO)C(O)C(O)C3O)[C@H]12 (some centres undefined) , report its T/C.
Response line: 118 % of control

Prompt line: Using the record for CCCCC(CC)CS(=O)(=O)OCCCCOS(=O)(=O)CC(CC)CCCC (centres undefined) , report its T/C.
Response line: 105 % of control

Prompt line: Using the record for CN1CC(O)c2cc(N=NC(N)=O)c(O)cc21 (centres undefined) , report its T/C.
Response line: 91 % of control

---

# System: P388 leukemia ip, CD2F1 mice, survival T/C
# Protocol Summary: NCI In Vivo Anticancer Drug Screen. Data for tumor model P388 Leukemia (intraperitoneal) in CD2F1 (CDF1) mice
# Cond: endpoint: median survival time; dose: 25.0 mg/kg/injection; schedule: Q01DX009 (ip); vehicle: Klucel (hydroxypropylcellulose) (HPC); higher = longer survival
Toxic doses and inconclusive results are not listed.
Reported Endpoint: T/C

Before answering, review these 5 worked examples.
Nc1ncc(C2CO2)c(-c2ccccc2)n1 (stereo not drawn)	94 % of control
O=C1C(Cl)=C(NCCO)C(=O)c2ccccc21	101 % of control
CC1CCC2(NC1)OC1CC3C4CCC5CC(N)CCC5(C)C4CCC3(C)C1C2C (stereo not drawn)	106 % of control
COC(=O)/C=C/c1c[nH]c2nccnc12	100 % of control
O=C1CCC2CC1CCC2=O	102 % of control

Prompt line: Using the record for `O=c1oc(-c2cccc([N+](=O)[O-])c2)ns1` , report its T/C.
Response line: 109 % of control

Prompt line: Using the record for `c1ccc(-c2nnc(-c3ccccn3)nn2)nc1` , report its T/C.
Response line: 100 % of control

Prompt line: Using the record for C=C1C2CCC3(CCC4C5(C)CCCC4(C=[N+](CCO)C5)C3C2)C1O (stereo not drawn) , report its T/C.
Response line: 94 % of control

Prompt line: Using the record for `C[N+](C)(C)CCC(=O)c1ccccc1` , report its T/C.
Response line: 96 % of control

---

Catalogue of T/C values
# Tested on: P388 leukemia ip, CD2F1 mice, survival T/C
# Protocol Summary: NCI In Vivo Anticancer Drug Screen. Data for tumor model P388 Leukemia (intraperitoneal) in CD2F1 (CDF1) mice
# Cond: endpoint: median survival time; dose: 200.0 mg/kg/injection; schedule: Q04DX003 (ip); vehicle: suspension in saline; higher = longer survival
Inconclusive results and toxic doses are left out.

Before answering, review these 3 worked examples.
COc1ccccc1C1C2CCCC(C2O)C(c2ccccc2OC)N1C (centres undefined)	107 % of control
CC1(C)OC2C(CCP(=O)(O)O)OC(c3nc(C(N)=O)cs3)C2O1 (centres undefined)	100 % of control
CC(=O)C1=CN(Cc2ccccc2)C=C(C(C)C)C1	105 % of control

# input for lookup
Prompt line: Give recorded T/C with P388 leukemia ip, CD2F1 mice, survival T/C for the following compound: CCC(c1ccc(OCCS(=O)(=O)Oc2ccccc2)cc1)C(CC)c1ccc(OCCS(=O)(=O)Oc2ccccc2)cc1 (centres undefined)
Response line: 98 % of control
